binding signal values by entry
- testSystem: GST-VND3 NAC domain (Arabidopsis thaliana, UniProt Q9FH59 12-162)
- Sequence: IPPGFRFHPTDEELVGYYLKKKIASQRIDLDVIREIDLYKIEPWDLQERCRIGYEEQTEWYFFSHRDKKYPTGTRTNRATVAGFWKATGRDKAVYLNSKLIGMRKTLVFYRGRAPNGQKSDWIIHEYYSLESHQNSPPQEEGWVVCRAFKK
- assaySummary: universal protein binding microarray (PBM); transcription factors of Arabidopsis thaliana; high values mean tight binding
- conditionContext: protein: recombinant; tags: GST; chain copies: 2; dsDNA, one strand shown
measure: binding signal (E-score)

• ATGCCGTG = 0.399
• CACTCAAC = 0.089
• TCCGTCAA = 0.105
• TAGTCAGA = 0.065
• ACACGGCT = 0.348
• GACGTAAA = 0.329
• ATAACGTA = 0.334
• ATGCGTGC = 0.191
• ACGCTACT = 0.241
• GTACGCAA = 0.413
• AAGCGTGT = 0.126
• ACTAGTCA = 0.108
• CACACGTC = 0.199
• TGCGTAAA = 0.26
• GCGTGTAC = 0.197
• CTTACGCA = 0.255
• ACGTCACC = 0.239
• TAAGAAAA = 0.137
• AATTACGT = 0.47
• CTTACGTA = 0.43
• ACAAGTAA = 0.249
• ATGGCGTG = 0.151
• GTTCCTTA = 0.249
• GTAGCGTA = 0.239
• AGTTACGC = 0.103
• CTTGCTTA = 0.124
• ATGTCGTG = 0.362
• GTAAGTAA = 0.279
• CACGGCAA = 0.456
• GTGCCGTA = 0.443
• ATAGCGTA = 0.137
• TCACGCAA = 0.448
• ATTACGTC = 0.37
• ATTGACCA = 0.129
• AAGTAAGT = 0.217
• ATTTCGTG = 0.191
• GTAAGTCA = 0.19
• CCACGCAA = 0.354
• CTAGGAAA = 0.219
• CAAAAGTC = 0.141
• ACGTCTCC = 0.34
• GTAACGTA = 0.338
• CAAGCAAC = 0.164
• TAAGCAAA = 0.248
• TGCGTACA = 0.305
• GAGGTAAC = 0.0659
• GTACGAAA = 0.294
• ATTGCGTG = 0.441
• TAAGTTAA = 0.188
• AGTTTGAC = 0.0521
• ACGTAACG = 0.359
• ACGCAACA = 0.347
• GCGTGTCA = 0.0583
• TTGACCAA = 0.0958
• AACGTAGA = 0.206
• TAGGTCAA = 0.0723
• TATCGTAA = 0.143
• AGGTCAAA = 0.062
• ATACGCCA = 0.192
• ATTAGTCA = 0.135
• AGAGGAAA = 0.0951
• CACGGCAC = 0.458
• ACGAGAAA = 0.276
• GCGTGTAA = 0.246
• GTCAAATA = 0.0795
• CACGCATA = 0.116
• ATTACGTA = 0.468
• CGTACACG = 0.317
• AGTCAACG = 0.115
• CGTTTCCC = 0.179
• ACACGCCA = 0.22
• AAGGAATC = 0.0823
• AAGTAAGC = 0.21
• AAGTAATA = 0.216
• AGAAGGAA = 0.0779
• GGAAGCAA = 0.118
• TGCACGCA = 0.289
• CGTATACG = 0.321
• ACTAAGTA = 0.279
• CTTGCGTC = 0.0748
• CTTACCCC = 0.101
• GTTAAGCA = 0.143
• ACACGGTA = 0.227
• ATTAAGTA = 0.131
